TARGET_OR_SYSTEM: BChE (Homo sapiens, UniProt P06276)
Sequence (P06276 29-602): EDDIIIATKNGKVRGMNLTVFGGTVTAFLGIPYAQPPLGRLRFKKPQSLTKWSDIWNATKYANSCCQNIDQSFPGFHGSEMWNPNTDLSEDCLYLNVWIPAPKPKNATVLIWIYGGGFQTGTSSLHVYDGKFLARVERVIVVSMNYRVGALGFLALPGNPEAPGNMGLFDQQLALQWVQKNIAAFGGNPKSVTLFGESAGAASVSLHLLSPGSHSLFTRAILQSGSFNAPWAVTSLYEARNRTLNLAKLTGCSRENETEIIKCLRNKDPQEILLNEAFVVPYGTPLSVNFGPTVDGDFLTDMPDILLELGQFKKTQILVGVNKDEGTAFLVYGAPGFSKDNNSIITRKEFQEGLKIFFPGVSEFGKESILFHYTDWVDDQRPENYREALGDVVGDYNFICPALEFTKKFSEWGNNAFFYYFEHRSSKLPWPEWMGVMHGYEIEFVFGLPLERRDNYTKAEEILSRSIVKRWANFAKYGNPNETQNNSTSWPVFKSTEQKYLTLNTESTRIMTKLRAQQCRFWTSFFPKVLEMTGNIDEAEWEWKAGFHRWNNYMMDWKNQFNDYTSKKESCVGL
ASSAY_INFO: Anticholinesterase activity assay (modified Ellman method), BChE
Format: biochemical
DETAILS: 10^−3 M
Each entry below carries its reported inhibition at 1000 µM.
Expressed in %, but write only the number.

INSERT INTO measurements (compound, obs_value) VALUES
  ('N#Cc1ccc(-c2csc(NN=Cc3ccc(N4CCN(c5ccc(F)cc5)CC4)cc3)n2)cc1 [Compound 3e]', 31.8),
  ('O=[N+]([O-])c1ccc(-c2csc(NN=Cc3ccc(N4CCN(c5ccc(F)cc5)CC4)cc3)n2)cc1 [Compound 3d]', 35.4),
  ('Cc1ccc(-c2csc(NN=Cc3ccc(N4CCN(c5ccc(F)cc5)CC4)cc3)n2)cc1 [Compound 3b]', 37.4);

Ask: Which inhibition at 1000 µM value is on record for Fc1ccc(N2CCN(c3ccc(C=NNc4nc(-c5ccc(Cl)cc5)cs4)cc3)CC2)cc1 [Compound 3g] ?
Result: 38.5

Ask: Which inhibition at 1000 µM value is on record for Fc1ccc(N2CCN(c3ccc(C=NNc4nc(-c5ccccc5)cs4)cc3)CC2)cc1 [Compound 3a] ?
Result: 21.5

Ask: Which inhibition at 1000 µM value is on record for Fc1ccc(N2CCN(c3ccc(C=NNc4nc(-c5ccc(Br)cc5)cs4)cc3)CC2)cc1 [Compound 3h] ?
Result: 40.6

Ask: Which inhibition at 1000 µM value is on record for Fc1ccc(-c2csc(NN=Cc3ccc(N4CCN(c5ccc(F)cc5)CC4)cc3)n2)cc1 [Compound 3f] ?
Result: 28.2

Just for reference, paper PMC6651548 is where these values come from.
